- assay-system: Transcription intermediary factor 1-alpha (Homo sapiens, UniProt O15164)
- Sequence (O15164 whole entry): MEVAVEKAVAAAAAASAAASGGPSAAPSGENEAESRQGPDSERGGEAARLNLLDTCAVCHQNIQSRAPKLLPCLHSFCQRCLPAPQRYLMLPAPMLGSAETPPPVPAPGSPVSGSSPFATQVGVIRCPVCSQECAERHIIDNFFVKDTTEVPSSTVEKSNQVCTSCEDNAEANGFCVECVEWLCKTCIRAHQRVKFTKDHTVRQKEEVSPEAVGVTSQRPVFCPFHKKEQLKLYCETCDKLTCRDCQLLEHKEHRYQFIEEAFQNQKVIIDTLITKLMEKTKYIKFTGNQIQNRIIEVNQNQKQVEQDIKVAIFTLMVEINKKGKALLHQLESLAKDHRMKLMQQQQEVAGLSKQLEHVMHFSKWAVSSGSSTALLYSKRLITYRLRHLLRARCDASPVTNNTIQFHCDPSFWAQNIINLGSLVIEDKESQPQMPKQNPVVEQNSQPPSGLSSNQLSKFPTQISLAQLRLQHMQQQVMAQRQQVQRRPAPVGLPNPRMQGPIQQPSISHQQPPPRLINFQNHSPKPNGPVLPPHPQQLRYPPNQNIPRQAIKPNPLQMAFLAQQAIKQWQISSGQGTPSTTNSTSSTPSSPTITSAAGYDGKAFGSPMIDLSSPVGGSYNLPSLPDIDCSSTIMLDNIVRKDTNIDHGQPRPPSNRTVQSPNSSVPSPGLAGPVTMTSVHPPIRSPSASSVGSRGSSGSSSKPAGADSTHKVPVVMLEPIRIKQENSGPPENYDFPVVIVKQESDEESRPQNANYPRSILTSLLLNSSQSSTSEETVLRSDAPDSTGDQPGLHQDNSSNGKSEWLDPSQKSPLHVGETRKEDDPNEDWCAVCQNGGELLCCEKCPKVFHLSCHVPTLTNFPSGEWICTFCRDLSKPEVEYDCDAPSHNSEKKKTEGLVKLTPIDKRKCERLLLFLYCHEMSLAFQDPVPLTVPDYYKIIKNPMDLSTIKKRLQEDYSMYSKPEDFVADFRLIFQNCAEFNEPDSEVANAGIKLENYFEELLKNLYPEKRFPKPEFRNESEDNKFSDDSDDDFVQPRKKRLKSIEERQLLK
assay-endpoint: IC50 (nM)
# value in nM; strip the unit string

stdin: Given the entry CCCOc1cccc(Oc2cc3c(cc2NS(=O)(=O)c2ccc(OC)c(OC)c2)n(C)c(=O)n3C)c1 , report its measured IC50.
stdout: 218

---

- test-description: Antiproliferative activity against human MINO cells
- Type: functional, cell-based
assay-endpoint: IC50 (nM)
Answer with a number only, understood to be in nM.

stdin: Item CN(CCCNC(=O)CNc1cccc2c1C(=O)N(C1CCC(=O)NC1=O)C2=O)C(C)(C)/C=C(\C#N)C(=O)N1CCC[C@@H](n2nc(-c3ccc(Oc4ccccc4)cc3)c3c(N)ncnc32)C1 (stereo partly specified) has what recorded IC50?
stdout: 80

---

- Tested on: A549
- test-description: Antiproliferative activity against human A549 cells
- Type: functional, cell-based
// reported IC50 for each item listed

Some solved entries appear below for comparison.
stdin: Entry CCOc1cc(C(C)(C)C)ccc1C1=N[C@@H](c2ccc(Cl)cc2)[C@@H](c2ccc(Cl)cc2)N1C(=O)N1CCN(CC(=O)NCCOCCOCCOCCNC(=O)CN2CCN(C(=O)N3C(c4ccc(C(C)(C)C)cc4OCC)=N[C@H](c4ccc(Cl)cc4)[C@@H]3c3ccc(Cl)cc3)CC2=O)C(=O)C1 has what IC50?
stdout: 580 nM

stdin: Same again, this time with C[C@H]1[C@H](C)CC[C@]2(C(=O)NCCOCCOCCOCCNc3cccc4c3C(=O)N(C3CCC(=O)NC3=O)C4=O)CC[C@]3(C)C(=CC[C@@H]4[C@@]5(C)CC[C@H](O)C(C)(C)[C@@H]5CC[C@]43C)[C@H]12 (stereo partly drawn)
stdout: 230 nM

New cases:
stdin: Quick check: IC50 of COc1ccc(C2=N[C@@H](c3ccc(Cl)cc3)[C@@H](c3ccc(Cl)cc3)N2C(=O)N2CCNC(=O)C2)c(OC(C)C)c1 ?
stdout: 7900 nM
